Source listed as patent US11266640B2.

Target: IDO (Homo sapiens)
Construct: endogenous in cells
Experiment: Hela cell-based IDO inhibitory activity test (IFNγ added)
Settings: Hela cells with IFNγ, 48 hours incubation, OD 480 nm
The entries below are paired with their reported IC50.

Consider the reported IC50 for these compounds:
| compound | test.result |
| --- | --- |
| C#Cc1ccc(NC(=O)C[C@H]2C[C@@H]3CC(c4ccnc5ccc(F)cc45)=C[C@@H]3C2)nc1 | 5 to 25 nM |
| C#Cc1ccc(NC(=O)C(C)(C)[C@H]2C[C@H]3C[C@@H](c4ccnc5ccc(F)cc45)C[C@H]3C2)cn1 | ≤ 5 nM |
| CC(C(=O)Nc1ccc(Cl)cc1)[C@@H]1C[C@H]2C[C@@H](c3ccnc4ccc(F)cc34)C[C@H]2C1 (stereo partly shown) | ≤ 5 nM |
| O=C(CN1C[C@H]2C[C@@H](c3ccnc4ccc(F)cc34)C[C@H]2C1)Nc1ccc(Cl)cc1 | 25 to 100 nM |
| CC(C)(C(=O)Nc1ccc(C#N)nc1)[C@H]1C[C@H]2C[C@@H](c3ccnc4ccc(F)cc34)C[C@H]2C1 | ≤ 5 nM |
| CC(C(=O)Nc1ccc(O)nc1)[C@H]1C[C@H]2C[C@@H](c3ccnc4ccc(F)cc34)C[C@H]2C1 (stereo partly shown) | > 100 nM |

# ---- query compound ----
Find the measured IC50 of CC(C(=O)Nc1ccc(F)c(Br)c1)[C@H]1C[C@H]2C[C@@H](c3ccnc4ccc(F)cc34)C[C@H]2C1 (stereo partly shown) and report it.
25 to 100 nM

---

Target: IDO (Homo sapiens, UniProt P14902)
Construct: endogenous in cells
Sequence (P14902 whole entry): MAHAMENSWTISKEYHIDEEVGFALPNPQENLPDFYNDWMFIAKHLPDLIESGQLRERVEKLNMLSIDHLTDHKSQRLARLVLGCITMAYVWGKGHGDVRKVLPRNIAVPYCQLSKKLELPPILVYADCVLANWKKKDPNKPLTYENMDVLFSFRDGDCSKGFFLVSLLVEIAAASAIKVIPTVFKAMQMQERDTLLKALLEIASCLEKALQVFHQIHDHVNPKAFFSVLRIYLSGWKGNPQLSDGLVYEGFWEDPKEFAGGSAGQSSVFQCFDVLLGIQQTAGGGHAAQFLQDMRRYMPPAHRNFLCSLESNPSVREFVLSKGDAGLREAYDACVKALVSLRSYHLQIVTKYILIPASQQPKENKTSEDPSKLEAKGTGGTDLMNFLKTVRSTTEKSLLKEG
Test: Hela cell-based IDO inhibitory activity test (IFNγ added)
Details: Hela cells with IFNγ, 48 hours incubation, OD 480 nm
Quick list: IC50 per entry.

| molecule | IC50 |
| --- | --- |
| C#Cc1ccc(NC(=O)[C@H](C)[C@@H]2C[C@H]3CC(c4ccnc5ccc(F)cc45)C[C@H]3C2)nc1 (some centres unmarked) [Compound 75] | 0.005 to 0.025 µM |

Indicate its recorded IC50; the molecule in question is O=C(C[C@H]1C[C@@H]2C[C@H](c3ccnc4ccc(F)cc34)C[C@@H]2C1)Nc1ccc(Cl)cc1 [Compound 5]
≤ 0.005 µM

Please list IC50 recorded for the molecule CC(C(=O)Nc1ccc(C#CC(C)(C)O)cn1)[C@@H]1C[C@H]2C[C@@H](c3ccnc4ccc(F)cc34)C[C@H]2C1 (some centres unmarked) [Compound 78]
0.025 to 0.1 µM

Report IC50 for O=C(Cc1ccc(CC(C(=O)Nc2ccc(Cl)cc2)[C@H]2CC[C@@H](c3ccnc4ccc(F)cc43)CC2)cc1)NO (some centres unmarked) [Compound 10]
> 0.1 µM

Input CC(C(=O)Nc1ccc(C#N)cc1)[C@H]1C[C@H]2C[C@@H](c3ccnc4ccc(F)cc34)C[C@H]2C1 (some centres unmarked) [Compound 36] , output reported IC50.
≤ 0.005 µM

Respond only with IC50 recorded for CC(C(=O)Nc1ccc(Cl)nc1)[C@@H]1C[C@]2(C)C[C@H](c3ccnc4ccc(F)cc34)C[C@]2(C)C1 (some centres unmarked) [Compound 42]
≤ 0.005 µM

Supply IC50 value. Item: CC(C(=O)Nc1ccc(Cl)nc1)C1=C[C@H]2C[C@@H](c3ccnc4ccc(F)cc34)C[C@H]2C1 (some centres unmarked) [Compound 39]
≤ 0.005 µM

Note down IC50 recorded for Cn1ncc2cc(NC(=O)C[C@H]3C[C@H]4CC(c5ccnc6ccc(F)cc56)C[C@H]4C3)ccc21 (some centres unmarked) [Compound 15]
> 0.1 µM

# return recorded IC50 for entry CC(C(=O)Nc1ccc(Cl)nn1)[C@H]1C[C@H]2C[C@@H](c3ccnc4ccc(F)cc34)C[C@H]2C1 (some centres unmarked) [Compound 29]
0.025 to 0.1 µM

Consider the molecule CC(C(=O)Nc1nncs1)[C@H]1C[C@H]2C[C@@H](c3ccnc4ccc(F)cc34)C[C@H]2C1 (some centres unmarked) [Compound 31] and give its recorded IC50.
> 0.1 µM

Quick one: give measured IC50 for N#Cc1ccc(NC(=O)C2([C@@H]3C[C@H]4C[C@@H](c5ccnc6ccc(F)cc56)C[C@H]4C3)CC2)nc1 [Compound 94]
≤ 0.005 µM

# return recorded IC50 for entry O=C(Nc1ccc(Cl)cn1)C1C[C@@H]2C[C@H](c3ccnc4ccc(F)cc34)C[C@@H]2C1 (single isomer, unassigned) [Compound 108]
0.005 to 0.025 µM

Look up and state reported IC50 for O=C(C[C@@H]1C[C@@H]2C[C@@H](Oc3ccnc4ccccc34)C[C@@H]2C1)Nc1ccc(Cl)cc1 [Compound 51]
> 0.1 µM

Indicate its recorded IC50; the molecule in question is C#Cc1ccc(NC(=O)C(C)[C@H]2C[C@H]3C[C@@H](c4ccnc5ccc(F)cc45)C[C@H]3C2)cn1 (some centres unmarked) [Compound 37]
≤ 0.005 µM
